- TARGET_ENTITY: Troponin, cardiac muscle (Homo sapiens, UniProt P19429+P45379+P63316)
- METHOD: Fluorescence-based biochemical high throughput dose response assay for activators of the calcium sensitivity of cardiac Regulated Thin Filaments (RTF). [Related pubchem assays (depositor defined):AID493008, AID493018, AID504382, AID504383]
- Assay type: protein-complex assay
The source made the active and inactive calls.
PARAMETER_MEASURED: EC50

Field: example entries. Status: answers known.
MOLECULE: COC(=O)c1sc(N2C(=O)C(O)=C(C(=O)c3ccc(C)o3)C2c2ccc(F)cc2)nc1C (centres undefined)
EC50: > 71.4 µM (inactive)

MOLECULE: C/C(NN1CCCCC1c1cccnc1)=C1/C(=O)NC(=S)N(C2CCCCC2)C1=O (centres undefined)
EC50: 14.9 µM (inactive)

MOLECULE: S=c1[nH]nc(-c2ccc(Cl)cc2)n1-c1ccc2c(c1)OCCO2
EC50: > 71.5 µM (inactive)

--- query ---
Record Oc1[nH]nc(C(F)(F)F)c1/C=N/Cc1ccccc1Cl , field EC50: > 71.4 µM (inactive)

###

Answer each item with its documented EC50.
- TARGET_ENTITY: Luciferin 4-monooxygenase (Photinus pyralis, UniProt P08659)
- METHOD: firefly luciferase enzyme inhibitors, dose response, biochemical, luminescence (AID 1891)
Activity calls are given as the source filed them.

Count: 7. Required value per item: EC50.
1. CCOC(=O)c1cc(-c2ccccc2)sc1NC(=O)C(C)OC(=O)c1cccnc1OCC (stereo not given)
2. Cc1nc2sc(C(=O)c3ccccc3)c(N)c2c2c1CCCC2
3. COC(=O)c1sc(NC(=O)c2ccoc2C)nc1C
4. O=C1CCN(N=Nc2cccc(Cl)c2)N1
5. COc1ccc(N(Cc2cc3cc(OC)ccc3[nH]c2=O)S(=O)(=O)c2ccc(NC(C)=O)cc2)cc1
6. Cc1c(OC(C)C(=O)NCc2ccccn2)ccc2c3c(c(=O)oc12)CCCC3 (stereo not given)
7. O=C(Cc1ccc(-n2c(=O)c3ccccc3n(Cc3ccccc3Cl)c2=O)cc1)NCC1CCCO1 (stereo not given)

Result:
1. > 112 µM (not active)
2. > 112 µM (not active)
3. 2.44 µM (active)
4. > 112 µM (not active)
5. > 112 µM (not active)
6. > 112 µM (not active)
7. > 112 µM (not active)

Count: 3. Required value per item: EC50.
1. COC(=O)c1sccc1NC(=O)Nc1ccc(OC)c(OC)c1
2. CCCCNC(=O)c1ccc(N2CCC3(CC2)OCCO3)c([N+](=O)[O-])c1
3. COc1cccc(N/C=C/C(=O)c2ccc(OC)c(OC)c2)c1

Result:
2.36 µM (active)
> 112 µM (not active)
14.2 µM (active)

###

- TARGET_ENTITY: Peroxisome proliferator-activated receptor gamma/Nuclear receptor coactivator 2 (Homo sapiens)
- METHOD: TR-FRET dose response biochemical High Throughput Screening assay for agonists of the steroid receptor coactivator 2 (SRC-2) recruitment by the peroxisome proliferator-activated receptor gamma (PPAR gamma): non-selective agonists. [Related pubchem assays: 1297, 1032 ]
- Format: functional
Active and inactive are the calls of the source.
PARAMETER_MEASURED: EC50

COMPOUND: COc1ccc(Br)cc1-c1nc(CCl)cs1
EC50: 5.52 µM (active)
--
COMPOUND: Sc1nnc(-c2cccc(Br)c2)o1
EC50: 3.25 µM (active)
--
COMPOUND: COC(=O)c1sc(N2C(=O)C(O)=C(C(=O)c3ccc(C)o3)C2c2ccc(F)cc2)nc1C (stereo not given)
EC50: 32.3 µM (not active)
--
COMPOUND: CC(Sc1nc(N2CCCCC2)c2c(c1C#N)CCCC2)C(=O)O (stereo not given)
EC50: 64.9 µM (not active)

--- query ---
Record Cc1cccc(-n2c(S)nnc2-c2ccco2)c1 , field EC50: > 79.4 µM (not active)

###

Answer each item with its documented IC50.
- TARGET_ENTITY: Nonstructural protein 1 (Influenza A virus)
- Format: functional, Influenza A virus (A/California/07/2009(H1N1))
Calls of active or inactive are those of the source.

Field: example entries. Status: answers known.
MOLECULE: COc1cccc(/C=N/Nc2cc(N3CCOCC3)ncn2)c1O
IC50: 5.96 µM (active)

MOLECULE: c1ccc(-c2cnc(-c3ccccn3)nn2)cc1
IC50: 18.9 µM (active)

MOLECULE: COCc1ccc(CN2CCC(C(=O)Nc3cccc(-c4cccc(Cl)c4)c3)CC2)o1
IC50: > 100 µM (active)

Record Cc1ccc(S(=O)(=O)Nc2ccc(O)c3ncccc23)cc1 , field IC50: 16 µM (active)

###

Answer each item with its documented AC50.
- TARGET_ENTITY: Acyl-homoserine lactone acylase PvdQ (Pseudomonas aeruginosa (strain LESB58))
- METHOD: P. aeruginosa PvdQ acylase inhibitors, dose response, biochemical, fluorescence, plate reader and imaging, cherry-picks (AID 493231)
The source made the active and inactive calls.

COMPOUND: N#Cc1cc(-c2ccccc2)cnc1Cl
RESULT_VALUE: 6.29 µM (active)
//
COMPOUND: O=C1C2C3C=CC(C4CC34)C2C(=O)N1Cc1ccco1 (centres undefined)
RESULT_VALUE: 12.4 µM (active)
//
COMPOUND: O=C(O)CCc1nc(-c2ccc(Cl)cc2)no1
RESULT_VALUE: 16.1 µM (active)

--- query ---
Record O=C1C=C(c2cccc(Br)c2)C[C@@H](c2ccc(F)cc2)C1 , field AC50: 48.9 µM (active)

###

- TARGET_ENTITY: Major prion protein (Homo sapiens)
- Type: functional, cell-based
The source made the active and inactive calls.
Answer each item with its documented IC50.

Count: 4. Required value per item: IC50.
1. CCc1c(C)nc2c(Br)cccc2c1SCCC#N
2. CCN1C(=O)C2(C(C(=O)c3cc4ccccc4o3)=C(O)C(=O)N2CCCN2CCOCC2)c2ccccc21 (centres undefined)
3. Cc1cc(NC(=O)CSc2nc(O)c(C#N)c(-c3ccccc3)n2)no1
4. COc1cc(C(=O)Nc2ccc3c(c2)ncn3C)cc(OC)c1OC

Result:
1: 2.52 µM (active); 2: 2.08 µM (active); 3: 7.14 µM (active); 4: 6.23 µM (active)

###

Answer each item with its documented AC50.
- TARGET_ENTITY: Cytochrome P450 2D6 (Homo sapiens);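 further: CYP2D6 member of a cytochrome P450 panel assay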

COMPOUND: Cc1ccc2nc(Nc3ccccc3O)nc(-c3ccccc3)c2c1
AC50: 3.55 µM (inconclusive)

Count: 5. Required value per item: AC50.
1. Cc1cnc(CNc2ncncc2-c2ccccc2C)cn1
2. O=C(NC(=S)Nc1ccc2c(c1)OCO2)c1ccccc1
3. Cc1cccc(CNc2cc(-c3ccccc3Cl)ncn2)c1
4. CN1CCC(n2[nH]c(-c3ccccc3)c(Cc3ccccc3)c2=O)CC1
5. O=S(=O)(Nc1ccc2oc(-c3ccccc3)nc2c1)c1ccccc1

Result:
["12.6 µM (inconclusive)", "3.55 µM (inconclusive)", "39.8 µM (inconclusive)", "3.16 µM (inconclusive)", "25.1 µM (inconclusive)"]

Count: 5. Required value per item: AC50.
1. Cc1ccc(C(=O)N/C(=C\c2ccc(Br)cc2)c2n[nH]c(S)n2)cc1
2. COC(=O)c1ccccc1Oc1c(F)c(F)nc(N2CCOCC2)c1F
3. O=C1CC(SC(=Nc2ccccc2)Nc2ccccc2)C(=O)N1c1cccc(Cl)c1 (stereo unspecified)
4. CCCCCC(=O)N1CCCC(c2nc(-c3ccc(OC)cc3)no2)C1 (stereo unspecified)
5. COc1ccc(OC)c2nc(O)c(CCNC(=O)c3ccc(S(=O)(=O)N4CCCC4)cc3)cc12

Result:
["31.6 µM (inconclusive)", "35.5 µM (inconclusive)", "10 µM (inconclusive)", "15.8 µM (inconclusive)", "20 µM (inconclusive)"]

###

Answer each item with its documented IC50.
- TARGET_ENTITY: Rac GTPase-activating protein 1 (Homo sapiens)
- Sequence (Q9H0H5 whole entry): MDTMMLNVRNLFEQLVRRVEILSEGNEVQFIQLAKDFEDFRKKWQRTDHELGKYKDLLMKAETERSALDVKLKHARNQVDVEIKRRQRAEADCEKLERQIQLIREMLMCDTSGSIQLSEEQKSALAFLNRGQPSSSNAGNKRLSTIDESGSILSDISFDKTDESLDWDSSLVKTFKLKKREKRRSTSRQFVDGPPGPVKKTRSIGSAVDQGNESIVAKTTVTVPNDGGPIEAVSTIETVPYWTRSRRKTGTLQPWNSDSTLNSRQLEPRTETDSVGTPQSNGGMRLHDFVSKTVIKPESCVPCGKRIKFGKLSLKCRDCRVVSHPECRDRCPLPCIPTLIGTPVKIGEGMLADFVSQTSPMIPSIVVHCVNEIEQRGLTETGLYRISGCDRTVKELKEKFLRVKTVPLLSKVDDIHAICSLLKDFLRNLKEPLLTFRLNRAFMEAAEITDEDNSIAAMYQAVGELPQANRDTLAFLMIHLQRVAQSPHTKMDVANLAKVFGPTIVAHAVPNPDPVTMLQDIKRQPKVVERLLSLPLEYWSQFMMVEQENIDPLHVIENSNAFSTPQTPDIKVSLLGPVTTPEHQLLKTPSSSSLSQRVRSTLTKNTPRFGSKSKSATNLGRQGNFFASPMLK
- METHOD: MgcRacGAP GTPase-activating activity inhibitors, confirmation, biochemical, ADP Hunter fluorescence, primary and confirmatory (AID 624330)
- Format: functional
Active and inactive are the calls of the source.

MOLECULE: COc1cc(N)c2ncccc2c1SC
TARGET_ENTITY: Rac GTPase-activating protein 1 (Homo sapiens)
RESULT_VALUE: 41.3 µM (active)

Count: 2. Required value per item: IC50.
1. CCOc1cc(/C=N/n2cnnc2)ccc1O
2. COc1cccc(OC)c1NC(=O)CN1CCN(C)CC1

Result:
1: 34.3 µM (active); 2: 100 µM (active)
